What follows is a collection of Ki values obtained with synthetic Aβ(1-40) (Homo sapiens, UniProt P05067).
Sequence (P05067 672-711): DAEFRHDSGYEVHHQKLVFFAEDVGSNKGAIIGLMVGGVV
Assay Readout: Ki (nM)

Smiles Text: Fc1ccc(-c2nc3ccccc3s2)cc1
Unit Name: nM
Numeric Result: 43.8

Smiles Text: CNc1cc(F)ccc1-c1nc2ccc(O)cc2s1
Unit Name: nM
Numeric Result: 48.8

Smiles Text: Oc1ccc2nc(-c3ccc(F)cc3O)sc2c1
Unit Name: nM
Numeric Result: 31.3

Smiles Text: Oc1ccc2sc(-c3ccc(F)cc3)nc2c1
Unit Name: nM
Numeric Result: 504

Smiles Text: COc1ccc2nc(-c3ccc(F)cc3)sc2c1
Unit Name: nM
Numeric Result: 6

Smiles Text: CNc1ccc2nc(-c3ccc(O)c(F)c3)sc2c1
Unit Name: nM
Numeric Result: 5.3

Smiles Text: CNc1ccc(-c2nc3ccccc3s2)cc1CCCF
Unit Name: nM
Numeric Result: 76.9

Smiles Text: Oc1ccc2nc(-c3ccc(F)c(F)c3)sc2c1
Unit Name: nM
Numeric Result: 18.9

Smiles Text: Nc1c(F)cccc1-c1nc2ccc(O)cc2s1
Unit Name: nM
Numeric Result: 3.1

Smiles Text: Oc1cccc2nc(-c3ccc(F)cc3)sc12
Unit Name: nM
Numeric Result: 186

Smiles Text: COc1ccc2nc(-c3ccc(F)cc3OC)sc2c1
Unit Name: nM
Numeric Result: 16.6

Smiles Text: Oc1ccc2nc(-c3ccc(F)cc3)sc2c1
Unit Name: nM
Numeric Result: 180
